test system: PA-1; assay: Primary qHTS to identify gynecologic anti-cancer compounds using libraries of approved drugs and bioactive compounds (AID 1345084); conditions: Gynecologic cancer cell panel viability, ATPlite luminescence, 48 h; series mostly up to 57.5 µM; further: nearly all actives have a fitted effect of over 55% in size
Results filed as inconclusive are left out. Activity calls are given as the source filed them. The call rests on the fitted dose curve; in most records, active means well fitted cell-killing curve with a large enough effect; inconclusive means small, poorly fitted or top-dose-only effect, or effect the other way; inactive means flat fitted curve, though single readings scatter.
Select the correct class. Options are active, inactive and nothing else.

Outcome? Cc1ccc(S(=O)(=O)N2CCC[C@H]2c2ccc(F)cc2)cc1 inactive

Outcome? CCOC(=O)N1CCC(N2CCC[C@@H](NC(=O)c3ccccc3C)C2)CC1 inactive

Outcome? COc1cc2c(NC3CCN(C(C)C)CC3)nc(N3CCC(F)(F)CC3)nc2cc1OCCCN1CCCC1 active

Outcome? Cc1cc(F)ccc1[C@H]1C[C@@H](N2CCN3C(=O)CC[C@H]3C2)CCN1C(=O)N(C)[C@H](C)c1cc(C(F)(F)F)cc(C(F)(F)F)c1 inactive

Outcome? COc1ccccc1OCCNCC(O)CCOc1cccc2[nH]c3ccccc3c12 (stereo not given) inactive

Outcome? COc1cc(C(=O)NCC2(N(C)C)CCCC2)cc(OC)c1OCc1ccccc1 inactive

Outcome? C=C1CCCC2(C)CCC(C(C)(C)OC3OC(C)C(O)C(O)C3OC(=O)/C(C)=C\C)CC12 (stereo not given) inactive

Outcome? COc1ccc(-c2cc3onc(-c4ccncc4)c3c(=O)n2C)cc1 inactive

Outcome? O=C(NCC(=O)N1CCCC1)Nc1ccc2cnccc2c1 inactive

Outcome? C=C1CC[C@H]2C(=C)CC[C@H]3C(=C)C(=O)O[C@@H]3[C@@H]12 inactive

Outcome? CCCCCCOC(=O)/N=C(\N)c1ccc(NCc2nc3cc(C(=O)N(CCC(=O)OCC)c4ccccn4)ccc3n2C)cc1 inactive

Outcome? CNS(=O)(=O)c1ccccc1Nc1nc(Nc2ccc(N3CCN(C)CC3)cc2OC)ncc1Br active

Outcome? OC1C=C2C3CN(Cc4cc5c(cc43)OCO5)C2CC1O (stereo not given) active

Outcome? C=C1CC2OC(=O)C(=C)C2C(O)/C=C(\C)CCC1O (stereo not given) inactive

Outcome? C/C=C(\C)C(=O)O[C@H]1C[C@](C)(O)[C@H]2CC=C(C)[C@H]2[C@@H]2OC(=O)[C@H](C)[C@H]21 inactive

Outcome? COc1ccc(Sc2ccc(NC(=O)c3ccccc3Cl)cc2C#N)cc1 inactive

Outcome? N#Cc1cc(C2=Nc3ccc(Br)cc3NC(=O)C2)ccn1 inactive

Outcome? O=c1[nH]c2ccccc2n1CCN1CCN(c2cccc(C(F)(F)F)c2)CC1 inactive

Outcome? CCC(CC)Nc1nc(C)c(-c2ccc(OC(F)(F)F)cc2OC)nc1OC inactive

Outcome? Nc1ncnc2c1c(-c1ccc(Oc3ccccc3)cc1)nn2[C@@H]1CCCNC1 active

* * *

Tested on: HACAT
Assay: qHTS assay to identify novel small-molecules to repurpose for Merkel cell carcinoma treatment (AID 1296009); further: nearly all actives have a fitted effect of over 60% in size
Conditions: MCC and control cell lines, CellTiter-Glo viability, 72 h; at 44.8 µM (top of the series) unless noted
Excerpt: MCC is a rare and aggressive neuroendocrine skin cancer with limited treatment options. Approximately 80% of MCCs have the Merkel cell polyomavirus (MCPyV) DNA integrated into the host genome (virus-positive: VP-MCC) and viral oncogenes drive oncogenesis. The remaining MCCs are virus-negative (VN-MCC) and are caused by UV mutagenesis. […] Using cell viability as a readout (CellTiter-Glo assay) we found both overlapping and distinct drugs that can be repurposed for the treatment of VP-MCC and VN-MCC. […]
Results filed as inconclusive are left out. Active and inactive are the calls of the source. Calls come from the whole dose curve; as a rule, active = well fitted inhibition curve with a large enough effect; inconclusive = small, poorly fitted or top-dose-only effect; inactive = flat fitted curve, though single readings scatter.
metricName: outcome

In the examples that follow, each entry is paired with its recorded outcome.
Field: outcome (HACAT). Entry: C/C=C(\C)C(=O)OC1C=C(C)CC(OC(=O)c2ccc(O)cc2)C2C1(C)CCC2(O)C(C)C (stereo not given) inactive [at 17.4 µM]

Field: outcome (HACAT). Entry: CNCCN1CCC(c2cc(CN(C)C(=O)c3cccc(Oc4ccccc4)c3)ccn2)CC1 inactive [at 17.4 µM]

Field: outcome (HACAT). Entry: COc1cc(C2OC(c3ccc(OC)c(OC)c3)C(C)C2C)ccc1O (stereo not given) inactive

Field: outcome (HACAT). Entry: CCCOc1ccc(S(=O)(=O)N2CCN(CCO)CC2)cc1-c1nc2c(CCC)cn(CC)c2c(=O)[nH]1 inactive

---
Field: outcome (HACAT). Entry: CCNC(=O)N1CCCN(c2ccc(C(=O)NCCc3ccc(Cl)cc3Cl)cc2NC(=O)c2cccc(Cl)c2)CC1 inactive
